# System under test: UniProt:P09237
# Assay: MMP-7 inhibition assay (fluorogenic peptide substrate)
# Assay type: biochemical
# Settings: recombinant MMP-7 8.3 nM, Mca-PLGL-Dpa-AR-NH2 10 μM, 4 hours at room temperature; tested at 1, 10, 100 and 200 μM
Where a SMILES comes first, the peptide text is derived from it. [ ]: non-standard residue; d: D form. The star is where a group is joined. ξ: configuration not given here. NMeW = CN[C@@H](Cc1c[nH]c2ccccc12)C(=O)O; Benzoyl(3,5-F2) = O=C(c1cc(F)cc(F)c1)*; NMeIle(3ξ) = CCC(C)[C@H](NC)C(=O)O; NMeF = CN[C@@H](Cc1ccccc1)C(=O)O; NMeL = CN[C@@H](CC(C)C)C(=O)O; Dab = NCC[C@H](N)C(=O)O; Butyryl = CCCC(=O)*; NHOH = ON*
Overview of recorded IC50 for various compounds

{"Compound": "CCC(C)[C@@H](C(=O)N[C@@H](CCNC(=O)c1cc(F)cc(F)c1)C(=O)NO)N(C)C(=O)[C@@H]1CCCN1C(=O)[C@H](Cc1ccccc1)N(C)C(C)=O (some centres unmarked) [Example 11] (Ac-[NMeF]P[NMeIle(3ξ)][Dab](Benzoyl(3,5-F2))-{NHOH})", "Unit descriptor": "µM", "IC50": 20.1}
{"Compound": "CCC(C)[C@@H](C(=O)N[C@@H](CCNC(=O)c1cc(F)cc(F)c1)C(=O)NO)N(C)C(=O)[C@@H]1CC(F)(F)CN1C(=O)CCCOc1ccccc1 (some centres unmarked)", "Unit descriptor": "µM", "IC50": 8.08}
{"Compound": "CCCCCC(=O)N1CCC[C@H]1C(=O)N(C)[C@H](C(=O)N[C@@H](CCNC(=O)c1cc(F)cc(F)c1)C(=O)NO)C(C)CC (some centres unmarked)", "Unit descriptor": "µM", "IC50": 6.61}
{"Compound": "CCCC(CCC)C(=O)N1CCC[C@H]1C(=O)N(C)[C@H](C(=O)N[C@@H](CCNC(=O)c1cc(F)cc(F)c1)C(=O)NO)C(C)CC (some centres unmarked)", "Unit descriptor": "µM", "IC50": 4.1}
{"Compound": "CCCC(=O)N(C)[C@@H](Cc1c[nH]c2ccccc12)C(=O)N(C)[C@@H](CC(C)C)C(=O)N1CCC[C@H]1C(=O)N(C)[C@H](C(=O)N[C@@H](CCNC(=O)c1cc(F)cc(F)c1)C(=O)NO)C(C)CC (some centres unmarked) [Example 14] (Butyryl-[NMeW][NMeL]P[NMeIle(3ξ)][Dab](Benzoyl(3,5-F2))-{NHOH})", "Unit descriptor": "µM", "IC50": 61}

###

# System under test: UniProt P08254
# Sequence (P08254 100-477): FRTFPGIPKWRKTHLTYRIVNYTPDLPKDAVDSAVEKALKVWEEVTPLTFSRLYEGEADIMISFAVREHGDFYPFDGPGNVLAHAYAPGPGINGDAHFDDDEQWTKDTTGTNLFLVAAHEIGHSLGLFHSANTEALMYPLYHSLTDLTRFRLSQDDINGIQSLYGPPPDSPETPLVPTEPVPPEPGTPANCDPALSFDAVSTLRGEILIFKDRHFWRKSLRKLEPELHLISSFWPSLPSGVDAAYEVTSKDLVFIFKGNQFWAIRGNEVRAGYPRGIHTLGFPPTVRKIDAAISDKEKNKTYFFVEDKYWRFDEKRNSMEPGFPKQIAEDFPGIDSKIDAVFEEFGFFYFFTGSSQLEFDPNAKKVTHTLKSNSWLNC
# Assay: MMP-3 inhibition assay (fluorogenic peptide substrate)
# Settings: recombinant MMP-3 7.7 nM, Mca-RPKPVE-Nval-WRK(Dnp)-NH2 10 μM, 4 hours at room temperature; tested at 1, 10, 100 and 200 μM
pIC50: −log10 of the molar value. Where a SMILES comes first, the peptide text is derived from it. [ ]: non-standard residue; d: D form. The star is where a group is joined. ξ: configuration not given here. Benzoyl(3,5-F2) = O=C(c1cc(F)cc(F)c1)*; NMeIle(3ξ) = CCC(C)[C@H](NC)C(=O)O; NMeA = CN[C@@H](C)C(=O)O; Dab = NCC[C@H](N)C(=O)O; Hexanoyl = CCCCCC(=O)*; Bz = O=C(c1ccccc1)*; NHOH = ON*

{"Compound": "CCCCCCCC(=O)N1CCC[C@H]1C(=O)N(C)[C@H](C(=O)N[C@@H](CCNC(=O)c1cc(F)cc(F)c1)C(=O)NO)C(C)CC (some centres unmarked)", "System under test": "UniProt P08254", "pIC50": 4.27}
{"Compound": "CCC(C)[C@@H](C(=O)N[C@@H](CCNC(=O)c1cc(F)cc(F)c1)C(=O)NO)N(C)C(=O)[C@@H]1CCCN1C(=O)[C@H](C)N(C)C(C)=O (some centres unmarked) [Example 12] (Ac-[NMeA]P[NMeIle(3ξ)][Dab](Benzoyl(3,5-F2))-{NHOH})", "System under test": "UniProt P08254", "pIC50": 3.80}
{"Compound": "CCC(C)[C@@H](C(=O)N[C@@H](CCNC(=O)c1cc(F)cc(F)c1)C(=O)NO)N(C)C(=O)[C@@H]1CCCN1C(=O)CCCOc1ccccc1 (some centres unmarked)", "System under test": "UniProt P08254", "pIC50": 5.49}
{"Compound": "CCCCCC(=O)N1CCC[C@H]1C(=O)N(C)[C@H](C(=O)N[C@@H](CCNC(=O)c1ccccc1)C(=O)NO)C(C)CC (some centres unmarked) [Example 15] (Hexanoyl-Pro-[NMeIle(3ξ)]-[Dab](Bz)-{NHOH})", "System under test": "UniProt P08254", "pIC50": 5.00}
{"Compound": "CCCC(CCC)C(=O)N1CCC[C@H]1C(=O)N(C)[C@H](C(=O)N[C@@H](CCNC(=O)c1cc(F)cc(F)c1)C(=O)NO)C(C)CC (some centres unmarked)", "System under test": "UniProt P08254", "pIC50": 5.42}

###

# System under test: MMP-7 (Homo sapiens (Human))
# Sequence (P09237 95-267): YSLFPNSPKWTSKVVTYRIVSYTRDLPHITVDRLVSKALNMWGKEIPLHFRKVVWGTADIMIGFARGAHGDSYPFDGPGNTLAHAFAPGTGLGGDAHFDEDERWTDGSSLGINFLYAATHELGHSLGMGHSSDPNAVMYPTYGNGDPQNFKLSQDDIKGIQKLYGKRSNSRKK
# Assay: MMP-7 inhibition assay (fluorogenic peptide substrate)
# Settings: recombinant MMP-7 8.3 nM, Mca-PLGL-Dpa-AR-NH2 10 μM, 4 hours at room temperature; tested at 1, 10, 100 and 200 μM
pIC50: −log10 of the molar value. Where a SMILES comes first, the peptide text is derived from it. [ ]: non-standard residue; d: D form. The star is where a group is joined. ξ: configuration not given here. NMeIle(3ξ) = CCC(C)[C@H](NC)C(=O)O; NMeQ = CN[C@@H](CCC(N)=O)C(=O)O; Dab = NCC[C@H](N)C(=O)O; Hexanoyl = CCCCCC(=O)*; Bz = O=C(c1ccccc1)*; NHOH = ON*
compounds and their reported pIC50

{"Compound": "CCCCCC(=O)N1CCC[C@H]1C(=O)N(C)[C@H](C(=O)N[C@@H](CCNC(=O)c1ccccc1)C(=O)NO)C(C)CC (some centres unmarked) [Example 15] (Hexanoyl-Pro-[NMeIle(3ξ)]-[Dab](Bz)-{NHOH})", "Reading qualifier": "=", "pIC50": 4.39}
{"Compound": "CC(=O)N1CCC[C@H]1C(=O)N(C)[C@@H](CCC(N)=O)C(=O)N[C@@H](Cc1c[nH]c2ccccc12)C(=O)NO [Example C20, reference compound] (Ac-Pro-[NMeQ]-Trp-{NHOH})", "Reading qualifier": "<", "pIC50": 2.70}
{"Compound": "CCC(C)[C@@H](C(=O)N[C@@H](CCNC(=O)c1cc(F)cc(F)c1)C(=O)NO)N(C)C(=O)[C@@H]1CCCN1C(C)=O (some centres unmarked)", "Reading qualifier": "=", "pIC50": 4.50}
{"Compound": "CCC(C)[C@@H](C(=O)N[C@@H](CCNC(=O)c1cc(F)cc(F)c1)C(=O)NO)N(C)C(=O)[C@@H]1CCCN1C(=O)CCCOc1ccccc1 (some centres unmarked)", "Reading qualifier": "=", "pIC50": 4.39}
{"Compound": "CCCC(=O)N1CCC[C@H]1C(=O)N(C)[C@H](C(=O)N[C@@H](CCNC(=O)c1cc(F)cc(F)c1)C(=O)NO)C(C)CC (some centres unmarked)", "Reading qualifier": "=", "pIC50": 5.35}

###

# Assay: Parallel artificial membrane permeability assay (PAMPA), Blood-Brain Barrier
# Assay type: in vitro ADME
# Settings: pig, initial concentration 200 μM, pH 7.4, 4 hours, read-out: Effective permeability Pe
Where a SMILES comes first, the peptide text is derived from it. [ ]: non-standard residue; d: D form. The star is where a group is joined. ξ: configuration not given here. Pro(trans-4-F) = O=C(O)[C@@H]1C[C@@H](F)CN1; NMeIle(3ξ) = CCC(C)[C@H](NC)C(=O)O; Dab = NCC[C@H](N)C(=O)O; Hexanoyl = CCCCCC(=O)*; Bz = O=C(c1ccccc1)*; NHOH = ON*
Listed below: Papp at 4 h, 200 µM values for each entry.

{"Compound": "CCCCCCCC(=O)N1CCC[C@H]1C(=O)N(C)[C@H](C(=O)N[C@@H](CCNC(=O)c1cc(F)cc(F)c1)C(=O)NO)C(C)CC (stereo partly drawn) [Example 6]", "Papp at 4 h, 200 µM": "3.5 ×10⁻⁶ cm/s"}
{"Compound": "CCC(C)[C@@H](C(=O)N[C@@H](CCNC(=O)c1ccc(F)cc1)C(=O)NO)N(C)C(=O)[C@@H]1CCCN1C(C)=O (stereo partly drawn) [Example 1]", "Papp at 4 h, 200 µM": "0.094 ×10⁻⁶ cm/s"}
{"Compound": "CCC(C)[C@@H](C(=O)N[C@@H](CCNC(=O)c1cc(F)cc(F)c1)C(=O)NO)N(C)C(=O)[C@@H]1CCCN1C(C)=O (stereo partly drawn) [Example 2]", "Papp at 4 h, 200 µM": "0.2 ×10⁻⁶ cm/s"}
{"Compound": "CCCCCC(=O)N1CCC[C@H]1C(=O)N(C)[C@H](C(=O)N[C@@H](CCNC(=O)c1ccccc1)C(=O)NO)C(C)CC (stereo partly drawn) [Example 15] (Hexanoyl-Pro-[NMeIle(3ξ)]-[Dab](Bz)-{NHOH})", "Papp at 4 h, 200 µM": "1.1 ×10⁻⁶ cm/s"}
{"Compound": "CCC(C)[C@@H](C(=O)N[C@@H](CCNC(=O)c1cc(F)cc(F)c1)C(=O)NO)N(C)C(=O)[C@@H]1CC(F)(F)CN1C(=O)CCCOc1ccccc1 (stereo partly drawn) [Example 10]", "Papp at 4 h, 200 µM": "7.6 ×10⁻⁶ cm/s"}
{"Compound": "CCCCCC(=O)N1CC(F)(F)C[C@H]1C(=O)N(C)[C@H](C(=O)N[C@@H](CCNC(=O)c1cc(F)cc(F)c1)C(=O)NO)C(C)CC (stereo partly drawn) [Example 7]", "Papp at 4 h, 200 µM": "11.3 ×10⁻⁶ cm/s"}
{"Compound": "CCCC(CCC)C(=O)N1CCC[C@H]1C(=O)N(C)[C@H](C(=O)N[C@@H](CCNC(=O)c1cc(F)cc(F)c1)C(=O)NO)C(C)CC (stereo partly drawn) [Example 8]", "Papp at 4 h, 200 µM": "4.7 ×10⁻⁶ cm/s"}
{"Compound": "CCC(C)[C@@H](C(=O)N[C@@H](CCNC(=O)c1cc(F)cc(F)c1)C(=O)NO)N(C)C(=O)[C@@H]1CCCN1C(=O)CCCOc1ccccc1 (stereo partly drawn) [Example 9]", "Papp at 4 h, 200 µM": "5.2 ×10⁻⁶ cm/s"}
{"Compound": "CCC(C)[C@@H](C(=O)N[C@@H](CCNC(=O)c1cc(F)cc(F)c1)C(=O)NO)N(C)C(=O)[C@@H]1CCCN1C(=O)CC(C)C (stereo partly drawn) [Example 5]", "Papp at 4 h, 200 µM": "1.9 ×10⁻⁶ cm/s"}
{"Compound": "CCCCCC(=O)N1C[C@H](F)C[C@H]1C(=O)N(C)[C@H](C(=O)N[C@@H](CCNC(=O)c1ccccc1)C(=O)NO)C(C)CC (stereo partly drawn) [Example 16] (Hexanoyl-[Pro(trans-4-F)]-[NMeIle(3ξ)]-[Dab](Bz)-{NHOH})", "Papp at 4 h, 200 µM": "3.7 ×10⁻⁶ cm/s"}
{"Compound": "CCCC(=O)N1CCC[C@H]1C(=O)N(C)[C@H](C(=O)N[C@@H](CCNC(=O)c1cc(F)cc(F)c1)C(=O)NO)C(C)CC (stereo partly drawn) [Example 4]", "Papp at 4 h, 200 µM": "0.74 ×10⁻⁶ cm/s"}
{"Compound": "CCCCCC(=O)N1CCC[C@H]1C(=O)N(C)[C@H](C(=O)N[C@@H](CCNC(=O)c1cc(F)cc(F)c1)C(=O)NO)C(C)CC (stereo partly drawn) [Example 3]", "Papp at 4 h, 200 µM": "2.3 ×10⁻⁶ cm/s"}
